For reference, pKd measured on Coagulation factor X (Homo sapiens):
pKd: −log10 of the molar value.

- compound: "O=S(=O)(O)Oc1cc2c(c(OS(=O)(=O)O)c1)C[C@H](OS(=O)(=O)O)[C@H](c1ccc(OS(=O)(=O)O)c(OS(=O)(=O)O)c1)O2"
  tested_on: "Coagulation factor X (Homo sapiens)"
  pKd: 4.97
- compound: "O=c1c(OS(=O)(=O)O)c(-c2ccc(OS(=O)(=O)O)c(OS(=O)(=O)O)c2)oc2cc(OS(=O)(=O)O)cc(OS(=O)(=O)O)c12"
  tested_on: "Coagulation factor X (Homo sapiens)"
  pKd: 4.77
- compound: "O=S(=O)(O)Oc1cc2c(c(OS(=O)(=O)O)c1)CC(OS(=O)(=O)O)C(c1ccc(OS(=O)(=O)O)c(OS(=O)(=O)O)c1)O2 (stereo not drawn)"
  tested_on: "Coagulation factor X (Homo sapiens)"
  pKd: 4.58

* * *

tested_on: UniProt:P00742
assay_method_text: Inhibitory activity against Plasma coagulation enzyme factor Xa; Value expressed as k Act/k UNCAT (uncatalyzed)
Format: cell-free

- compound: "O=S(=O)(O)Oc1cc2c(c(OS(=O)(=O)O)c1)C[C@@H](OS(=O)(=O)O)[C@H](c1ccc(OS(=O)(=O)O)c(OS(=O)(=O)O)c1)O2"
  Acceleration: 20.8
- compound: "O=S(=O)(O)Oc1cc2c(c(OS(=O)(=O)O)c1)CC(OS(=O)(=O)O)C(c1ccc(OS(=O)(=O)O)c(OS(=O)(=O)O)c1)O2 (configuration not stated)"
  Acceleration: 8.5
- compound: "O=c1c(OS(=O)(=O)O)c(-c2ccc(OS(=O)(=O)O)c(OS(=O)(=O)O)c2)oc2cc(OS(=O)(=O)O)cc(OS(=O)(=O)O)c12"
  Acceleration: 17.5
- compound: "CO[C@H]1O[C@H](COS(=O)(=O)O)[C@@H](O[C@@H]2O[C@H](C(=O)O)[C@@H](O[C@H]3O[C@H](COS(=O)(=O)O)[C@@H](O)[C@H](O)[C@H]3NS(=O)(=O)O)[C@H](O)[C@H]2O)[C@H](OS(=O)(=O)O)[C@H]1NS(=O)(=O)O"
  Acceleration: 320
- compound: "O=S(=O)(O)Oc1cc2c(c(OS(=O)(=O)O)c1)C[C@H](OS(=O)(=O)O)[C@H](c1ccc(OS(=O)(=O)O)c(OS(=O)(=O)O)c1)O2"
  Acceleration: 10.4
- compound: "CO[C@@H]1O[C@@H](C(=O)O)[C@@H](O[C@H]2OC(COS(=O)(=O)O)=C[C@H](OS(=O)(=O)O)[C@H]2NS(=O)(=O)O)[C@H](O)[C@H]1OS(=O)(=O)O"
  Acceleration: 19.7
- compound: "O=c1c(OS(=O)(=O)O)c(-c2ccc(OS(=O)(=O)O)cc2OS(=O)(=O)O)oc2cc(OS(=O)(=O)O)cc(OS(=O)(=O)O)c12"
  Acceleration: 21.8

* * *

tested_on: Coagulation factor X (Homo sapiens)
Sequence (P00742 41-179 limits assumed): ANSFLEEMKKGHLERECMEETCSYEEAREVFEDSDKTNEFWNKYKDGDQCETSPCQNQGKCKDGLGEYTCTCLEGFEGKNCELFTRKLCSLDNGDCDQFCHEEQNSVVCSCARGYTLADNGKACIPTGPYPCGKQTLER
Sequence (P00742 235-488 limits assumed): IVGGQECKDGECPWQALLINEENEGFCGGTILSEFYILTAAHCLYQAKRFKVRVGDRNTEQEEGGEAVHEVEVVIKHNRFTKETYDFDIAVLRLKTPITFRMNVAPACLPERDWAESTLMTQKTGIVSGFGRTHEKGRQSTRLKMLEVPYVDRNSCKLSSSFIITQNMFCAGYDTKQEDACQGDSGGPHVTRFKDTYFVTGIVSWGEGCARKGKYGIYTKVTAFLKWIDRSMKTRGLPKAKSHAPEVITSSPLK
assay_method_text: Second-order rate constant of factor Xa inhibition

- molecule: "O=c1c(OS(=O)(=O)O)c(-c2ccc(OS(=O)(=O)O)cc2OS(=O)(=O)O)oc2cc(OS(=O)(=O)O)cc(OS(=O)(=O)O)c12"
  k act [M⁻¹ s⁻¹]: 7100
- molecule: "CO[C@@H]1O[C@@H](C(=O)O)[C@@H](O[C@H]2OC(COS(=O)(=O)O)=C[C@H](OS(=O)(=O)O)[C@H]2NS(=O)(=O)O)[C@H](O)[C@H]1OS(=O)(=O)O"
  k act [M⁻¹ s⁻¹]: 6400
- molecule: "O=S(=O)(O)Oc1cc2c(c(OS(=O)(=O)O)c1)CC(OS(=O)(=O)O)C(c1ccc(OS(=O)(=O)O)c(OS(=O)(=O)O)c1)O2 (configuration not stated)"
  k act [M⁻¹ s⁻¹]: 2770
- molecule: "O=S(=O)(O)Oc1cc2c(c(OS(=O)(=O)O)c1)C[C@@H](OS(=O)(=O)O)[C@H](c1ccc(OS(=O)(=O)O)c(OS(=O)(=O)O)c1)O2"
  k act [M⁻¹ s⁻¹]: 6750
- molecule: "O=c1c(OS(=O)(=O)O)c(-c2ccc(OS(=O)(=O)O)c(OS(=O)(=O)O)c2)oc2cc(OS(=O)(=O)O)cc(OS(=O)(=O)O)c12"
  k act [M⁻¹ s⁻¹]: 5700
- molecule: "O=S(=O)(O)Oc1cc2c(c(OS(=O)(=O)O)c1)C[C@H](OS(=O)(=O)O)[C@H](c1ccc(OS(=O)(=O)O)c(OS(=O)(=O)O)c1)O2"
  k act [M⁻¹ s⁻¹]: 3380
- molecule: "CO[C@H]1O[C@H](COS(=O)(=O)O)[C@@H](O[C@@H]2O[C@H](C(=O)O)[C@@H](O[C@H]3O[C@H](COS(=O)(=O)O)[C@@H](O)[C@H](O)[C@H]3NS(=O)(=O)O)[C@H](O)[C@H]2O)[C@H](OS(=O)(=O)O)[C@H]1NS(=O)(=O)O"
  k act [M⁻¹ s⁻¹]: 45000
